Experiment: Cmax in Wistar rat plasma at 10 mg/kg, ip administered as single dose measured at 5 to 720 mins post dose by HPLC-MS/MS analysis
Assay type: ADME, organism-based
Set-up: dose 10 mg/kg, route intraperitoneal

{"INPUT SMILES": "[2H]C([2H])([2H])Oc1ccc2c3nn(-c4ccc(OC)nc4)c(=O)c-3c[nH]c2c1", "Cmax": "1250 ng/mL"}
{"INPUT SMILES": "COc1ccc(-n2nc3c4ccc(OC)cc4[nH]cc-3c2=O)cc1", "Cmax": "5050 ng/mL"}
{"INPUT SMILES": "[2H]C([2H])([2H])Oc1ccc(-n2nc3c4ccc(OC([2H])([2H])[2H])cc4[nH]cc-3c2=O)cc1", "Cmax": "3410 ng/mL"}
{"INPUT SMILES": "[2H]C([2H])([2H])Oc1ccccc1-n1nc2c3cc(Cl)ccc3[nH]cc-2c1=O", "Cmax": "434 ng/mL"}
{"INPUT SMILES": "[2H]C([2H])([2H])Oc1ccc(-n2nc3c4ccc(OC)cc4[nH]cc-3c2=O)cc1", "Cmax": "4430 ng/mL"}
{"INPUT SMILES": "[2H]C([2H])([2H])Oc1ccc2c3nn(-c4ccc(OC)cc4)c(=O)c-3c[nH]c2c1", "Cmax": "3740 ng/mL"}

* * *

Assay: Tmax in Wistar rat brain at 2 mg/kg, iv administered as single dose by HPLC-MS/MS analysis
Assay type: ADME, organism-based

{"INPUT SMILES": "[2H]C([2H])([2H])Oc1ccc(-n2nc3c4ccc(OC)cc4[nH]cc-3c2=O)cc1", "Tmax (h)": 1.36}
{"INPUT SMILES": "COc1ccc(-n2nc3c4ccc(OC)cc4[nH]cc-3c2=O)cc1", "Tmax (h)": 0.86}

* * *

Experiment: AUC (0 to 12 hrs) in Wistar rat plasma at 10 mg/kg, ip administered as single dose by HPLC-MS/MS analysis
Assay type: ADME, organism-based
Parameters: time < 12 hr, dose 10 mg/kg, route intraperitoneal

{"INPUT SMILES": "[2H]C([2H])([2H])Oc1ccc2c3nn(-c4ccc(OC)nc4)c(=O)c-3c[nH]c2c1", "AUC(0-t) at 12 h": "6020 ng·h/mL"}
{"INPUT SMILES": "[2H]C([2H])([2H])Oc1ccc(-n2nc3c4ccc(OC([2H])([2H])[2H])cc4[nH]cc-3c2=O)cc1", "AUC(0-t) at 12 h": "16700 ng·h/mL"}
{"INPUT SMILES": "[2H]C([2H])([2H])Oc1ccc(-n2nc3c4ccc(OC)cc4[nH]cc-3c2=O)cc1", "AUC(0-t) at 12 h": "24200 ng·h/mL"}
{"INPUT SMILES": "COc1ccc(-n2nc3c4ccc(OC)cc4[nH]cc-3c2=O)cc1", "AUC(0-t) at 12 h": "28800 ng·h/mL"}
{"INPUT SMILES": "[2H]C([2H])([2H])Oc1ccccc1-n1nc2c3cc(Cl)ccc3[nH]cc-2c1=O", "AUC(0-t) at 12 h": "1800 ng·h/mL"}
{"INPUT SMILES": "[2H]C([2H])([2H])Oc1ccc2c3nn(-c4ccc(OC)cc4)c(=O)c-3c[nH]c2c1", "AUC(0-t) at 12 h": "25300 ng·h/mL"}

* * *

Catalogue of molecules with associated Cmax
Test: Cmax in Wistar rat brain at 2 mg/kg administered as single dose via oral gavage measured at 5 to 1440 mins post dose by HPLC-MS/MS analysis
Type: ADME, organism-based
Design: dose 2 mg/kg, route oral
RECORDED METRIC: Cmax (ng/g)

{"INPUT SMILES": "COc1ccc(-n2nc3c4ccc(OC)cc4[nH]cc-3c2=O)cc1", "RECORDED METRIC": "Cmax", "UNITS": "ng/g", "EXPERIMENTAL RESULT": 67.3}
{"INPUT SMILES": "[2H]C([2H])([2H])Oc1ccc(-n2nc3c4ccc(OC)cc4[nH]cc-3c2=O)cc1", "RECORDED METRIC": "Cmax", "UNITS": "ng/g", "EXPERIMENTAL RESULT": 67.3}

* * *

Tested on: Liver
Experiment: Half life in human liver microsomes at 10 uM by LC-MS/MS analysis
Format: ADME, microsome
Catalogue of compounds with associated t1/2
RECORDED METRIC: t1/2

{"INPUT SMILES": "COc1ccc(-n2nc3c4cnc(OC)cc4[nH]cc-3c2=O)cc1", "EXPERIMENTAL RESULT": "10.6 h"}
{"INPUT SMILES": "[2H]C([2H])([2H])Oc1ccccc1-n1nc2c3ccc(OC)cc3[nH]cc-2c1=O", "EXPERIMENTAL RESULT": "3.5 h"}
{"INPUT SMILES": "COc1ccc(-n2nc3c4ccc(OC)cc4[nH]cc-3c2=O)cc1", "EXPERIMENTAL RESULT": "3.6 h"}
{"INPUT SMILES": "[2H]C([2H])([2H])Oc1cccc(-n2nc3c4ccc(Br)cc4[nH]cc-3c2=O)c1", "EXPERIMENTAL RESULT": "1.8 h"}
{"INPUT SMILES": "[2H]C([2H])([2H])Oc1ccccc1-n1nc2c3ccc(Br)cc3[nH]cc-2c1=O", "EXPERIMENTAL RESULT": "14.2 h"}
{"INPUT SMILES": "COc1ccc(-n2nc3c4cc(Cl)ccc4[nH]cc-3c2=O)cc1", "EXPERIMENTAL RESULT": "2.3 h"}
{"INPUT SMILES": "[2H]C([2H])([2H])Oc1ccc2c3nn(-c4ccc(OC([2H])([2H])[2H])nc4)c(=O)c-3c[nH]c2c1", "EXPERIMENTAL RESULT": "9.8 h"}
{"INPUT SMILES": "[2H]C([2H])([2H])Oc1cccc(-n2nc3c4ccc(OC)cc4[nH]cc-3c2=O)c1", "EXPERIMENTAL RESULT": "3.9 h"}
{"INPUT SMILES": "[2H]C([2H])([2H])Oc1ccc2c3nn(-c4ccccc4OC([2H])([2H])[2H])c(=O)c-3c[nH]c2c1", "EXPERIMENTAL RESULT": "9.9 h"}
{"INPUT SMILES": "[2H]C([2H])([2H])Oc1cccc(-n2nc3c4ccc(OC([2H])([2H])[2H])cc4[nH]cc-3c2=O)c1", "EXPERIMENTAL RESULT": "7.7 h"}
{"INPUT SMILES": "[2H]C([2H])([2H])Oc1ccc2c3nn(-c4ccc(OC)cc4)c(=O)c-3c[nH]c2c1", "EXPERIMENTAL RESULT": "11.1 h"}
{"INPUT SMILES": "COc1cccc(-n2nc3c4cc(Cl)ccc4[nH]cc-3c2=O)c1", "EXPERIMENTAL RESULT": "3.4 h"}
{"INPUT SMILES": "COc1ccc(-n2nc3c4ccc(Br)cc4[nH]cc-3c2=O)cc1", "EXPERIMENTAL RESULT": "1.7 h"}

* * *

Catalogue of compounds with associated Cmax
Test: Cmax in Wistar rat brain at 2 mg/kg, iv administered as single dose measured at 5 to 1440 mins post dose by HPLC-MS/MS analysis
Type: ADME, organism-based
Design: dose 2 mg/kg, route intravenous

{"INPUT SMILES": "COc1ccc(-n2nc3c4ccc(OC)cc4[nH]cc-3c2=O)cc1", "Cmax (ng/g)": 84.5}
{"INPUT SMILES": "[2H]C([2H])([2H])Oc1ccc(-n2nc3c4ccc(OC)cc4[nH]cc-3c2=O)cc1", "Cmax (ng/g)": 71.9}

* * *

Catalogue of compounds with associated half-life
Test: Terminal elimination half-life in Wistar rat brain at 10 mg/kg, ip administered as single dose by HPLC-MS/MS analysis
Type: ADME, organism-based
Settings: read-out: beta t1/2 (converted)
RECORDED METRIC: half-life (h)

{"INPUT SMILES": "[2H]C([2H])([2H])Oc1ccccc1-n1nc2c3cc(Cl)ccc3[nH]cc-2c1=O", "UNITS": "h", "EXPERIMENTAL RESULT": 5.54}
{"INPUT SMILES": "[2H]C([2H])([2H])Oc1ccc(-n2nc3c4ccc(OC)cc4[nH]cc-3c2=O)cc1", "UNITS": "h", "EXPERIMENTAL RESULT": 2.28}
{"INPUT SMILES": "[2H]C([2H])([2H])Oc1ccc2c3nn(-c4ccc(OC)nc4)c(=O)c-3c[nH]c2c1", "UNITS": "h", "EXPERIMENTAL RESULT": 9.07}
{"INPUT SMILES": "[2H]C([2H])([2H])Oc1ccc(-n2nc3c4ccc(OC([2H])([2H])[2H])cc4[nH]cc-3c2=O)cc1", "UNITS": "h", "EXPERIMENTAL RESULT": 3.52}
{"INPUT SMILES": "COc1ccc(-n2nc3c4ccc(OC)cc4[nH]cc-3c2=O)cc1", "UNITS": "h", "EXPERIMENTAL RESULT": 1.96}
{"INPUT SMILES": "[2H]C([2H])([2H])Oc1ccc2c3nn(-c4ccc(OC)cc4)c(=O)c-3c[nH]c2c1", "UNITS": "h", "EXPERIMENTAL RESULT": 2.6}

Source of measurements: ChEMBL document CHEMBL4033790
